system: SK-BR-3; assay: Antiproliferative activity against human SKBR3 cells expressing HER2 after 72 hrs by MTS/PMS assay; type: functional, cell-based; settings: SK-BR-3, 72 h
pIC50: −log10 of the molar value.
// NOT MET strictly below 6 in pIC50; MET otherwise

- COc1cccc(-c2cc(C(=O)Nc3cc4ccc(OC5C=CCN(C(C)=O)C5)c(C)c4oc3=O)ccc2OC)c1 (stereo unspecified): NOT MET
- COc1cccc(-c2cc(C(=O)Nc3cc4ccc(OS(C)(=O)=O)c(C)c4oc3=O)ccc2OC)c1: NOT MET
- COc1cc2cc(NC(=O)c3ccc(OC(C)=O)c(CC=C(C)C)c3)c(=O)oc2c(C)c1OC1CCN(C)CC1: MET
- COc1cccc(-c2cc(C(=O)Nc3cc4ccc(OS(=O)(=O)c5ccc(C)cc5)c(OC)c4oc3=O)ccc2OC)c1: NOT MET
- COc1cccc(-c2cc(C(=O)Nc3cc4ccc(OC5CCC[C@@H](O)[C@H]5O)c(C)c4oc3=O)ccc2OC)c1 (stereo partly specified): NOT MET
- COc1cccc(-c2cc(C(=O)Nc3cc4cc(OC)c(OC(=O)N(C)C)c(C)c4oc3=O)ccc2OC)c1: NOT MET
- COc1cccc(-c2cc(C(=O)Nc3cc4ccc(OS(=O)(=O)c5ccc(C)cc5)c(C)c4oc3=O)ccc2OC)c1: NOT MET
- COc1cc2cc(NC(=O)c3ccc(O)c(CC=C(C)C)c3)c(=O)oc2c(C)c1OC1CCN(C)CC1: MET
- COc1cccc(-c2cc(C(=O)Nc3cc4cc(OC)c(O[C@H]5C[C@H](O)CCO5)c(C)c4oc3=O)ccc2OC)c1: NOT MET
- COc1cccc(-c2cc(C(=O)Nc3cc4ccc(OC5CN(C)C[C@@H](O)[C@H]5O)c(C)c4oc3=O)ccc2OC)c1 (stereo partly specified): NOT MET

* * *

system: B16-F10; assay: Antiproliferative activity against mouse B16F10 cells after 72 hrs by MTS/PMS assay; format: functional, cell-based; settings: B16-F10, 72 h
Binary label based on IC50 with cut-off 5000 nM: below gives label 1, not below gives label 0.

* COc1cccc(-c2cc(C(=O)Nc3cc4ccc(OC5CCN(C)CC5)c(OC)c4oc3=O)ccc2OC)c1 | label 1
* COc1cccc(-c2cc(C(=O)Nc3cc4ccc(OC5CCNCC5)c(OC)c4oc3=O)ccc2OC)c1 | label 1
* COc1cccc(-c2cc(C(=O)Nc3cc4ccc(OC5CCCN(C(C)=O)C5)c(C)c4oc3=O)ccc2OC)c1 (stereo not drawn) | label 0
* COc1cccc(-c2cc(C(=O)Nc3cc4ccc(OC5C=CCC(C)(C)C5)c(C)c4oc3=O)ccc2OC)c1 (stereo not drawn) | label 0
* COc1cccc(-c2cc(C(=O)Nc3cc4ccc(OC(C)=O)c(C)c4oc3=O)ccc2OC)c1 | label 1
* COc1cccc(-c2cc(C(=O)Nc3cc4ccc(O[C@@H]5C[C@H](O)CO5)c(C)c4oc3=O)ccc2OC)c1 | label 0
* COc1cccc(-c2cc(C(=O)Nc3cc4ccc(OC5CCCN(C)C5)c(OC)c4oc3=O)ccc2OC)c1 (stereo not drawn) | label 1

* * *

system: SK-BR-3; test: Antiproliferative activity against human SKBR3 cells expressing HER2 after 72 hrs by MTS/PMS assay; format: functional, cell-based; settings: SK-BR-3, 72 h
Form field: IC50 (one value per entry).
value type: IC50 (nM)

* COc1cccc(-c2cc(C(=O)Nc3cc4ccc(OC(C)=O)c(C)c4oc3=O)ccc2OC)c1 | 980
* Cc1c(OC2CCN(C)CC2)ccc2cc(NC(=O)c3cc4ccccc4[nH]3)c(=O)oc12 | 480
* COc1cc2cc(NC(=O)c3ccc(OC(C)=O)c(CC=C(C)C)c3)c(=O)oc2c(C)c1OCCCN(C)C | 360
* COc1c(OCCCN(C)C)ccc2cc(NC(=O)c3ccc(O)c(CC=C(C)C)c3)c(=O)oc12 | 770
* CO[C@H]1[C@H](OC(=O)c2ccc(C)[nH]2)[C@H](O)[C@@H](Oc2ccc3c(O)c(NC(=O)c4c[nH]c(C(=O)Nc5c(O)c6ccc(O[C@H]7OC(C)(C)[C@@H](OC)[C@H](OC(=O)c8ccc(C)[nH]8)[C@@H]7O)c(C)c6oc5=O)c4C)c(=O)oc3c2C)OC1(C)C [COUMERMYCIN A1] | 70000
* COc1cccc(-c2cc(C(=O)Nc3cc4ccc(O[C@H]5OCC[C@@H](O)[C@H]5O)c(C)c4oc3=O)ccc2OC)c1 | 6710
* COc1cccc(-c2cc(C(=O)Nc3cc4cc(OC)c(O[C@@H]5O[C@H](CO)C[C@@H](O)[C@H]5O)c(C)c4oc3=O)ccc2OC)c1 | 9450
* COc1cccc(-c2cc(C(=O)Nc3cc4cc(OC)c(OCCN(C)C)c(C)c4oc3=O)ccc2OC)c1 | 1420

* * *

Form field: IC50 (one value per entry).
tested on: SK-BR-3; test: Antiproliferative activity against human SKBR3 cells expressing HER2 after 72 hrs by MTS/PMS assay; type: functional, cell-based; settings: SK-BR-3, 72 h
value type: IC50 (µM)

* COc1cccc(-c2cc(C(=O)Nc3cc4ccc(OC(C)=O)c(OC)c4oc3=O)ccc2OC)c1 | 20.5
* COc1cccc(-c2cc(C(=O)Nc3cc4ccc(OCCCN(C)C)c(OC)c4oc3=O)ccc2OC)c1 | 0.91
* COc1c(OC2CCN(C)CC2)ccc2cc(NC(=O)c3ccc(OC(C)=O)c(CC=C(C)C)c3)c(=O)oc12 | 1.07
* COc1cccc(-c2cc(C(=O)Nc3cc4cc(OC)c(O[C@@H]5C[C@H](O)CCO5)c(C)c4oc3=O)ccc2OC)c1 | 1.37
* COc1cccc(-c2cc(C(=O)Nc3cc4ccc(O[C@@H]5OCC[C@@H](O)[C@H]5O)c(OC)c4oc3=O)ccc2OC)c1 | 1.46
* COc1cccc(-c2cc(C(=O)Nc3cc4cc(OC)c(OC5CCCN(C)C5)c(C)c4oc3=O)ccc2OC)c1 (stereo not drawn) | 1.49
* CO[C@@H]1[C@@H](OC(N)=O)[C@@H](O)[C@H](Oc2ccc3cc(NC(=O)c4ccc(O)c(CC=C(C)C)c4)c(=O)oc3c2C)OC1(C)C | 7.5

* * *

test: Antiproliferative activity against human JMAR cells after 72 hrs by MTS/PMS assay; assay type: functional, cell-based
value type: IC50 (µM)

- COc1cccc(-c2cc(C(=O)Nc3cc4ccc(OC5CNC[C@@H](O)[C@H]5O)c(OC)c4oc3=O)ccc2OC)c1 (some centres undefined): 11.6
- COc1cccc(-c2cc(C(=O)Nc3cc4ccc(OC5C=CCN(C)C5)c(OC)c4oc3=O)ccc2OC)c1 (centres undefined): 1.94
- COc1cccc(-c2cc(C(=O)Nc3cc4cc(OC)c(OC5CN(C)C[C@@H](O)[C@H]5O)c(C)c4oc3=O)ccc2OC)c1 (some centres undefined): 24.5
- COc1cccc(-c2cc(C(=O)Nc3cc4ccc(O[C@@H]5OCC[C@@H](O)[C@H]5O)c(C)c4oc3=O)ccc2OC)c1: 2.79

* * *

Form field: IC50 (one value per entry).
experiment: Antiproliferative activity against human androgen-independent PC3MM2 cells after 72 hrs by MTS/PMS assay; assay type: functional, cell-based; conditions: PC3MM2, 72 h
value type: IC50 (µM)

- CNCCOc1ccc2cc(NC(=O)c3ccc(OC)c(-c4cccc(OC)c4)c3)c(=O)oc2c1C: 14
- COc1cccc(-c2cc(C(=O)Nc3cc4ccc(OC5CN(C(C)=O)C[C@@H](O)[C@H]5O)c(C)c4oc3=O)ccc2OC)c1 (some centres not stated): 2.22
- COc1cccc(-c2cc(C(=O)Nc3cc4ccc(OC5CCN(C)CC5)c(OC)c4oc3=O)ccc2OC)c1: 3.71
- COc1cccc(-c2cc(C(=O)Nc3cc4cc(OC)c(OC(=O)N(C)C)c(C)c4oc3=O)ccc2OC)c1: 4.04
- COc1cccc(-c2cc(C(=O)Nc3cc4ccc(OC5CCCN(C(C)=O)C5)c(C)c4oc3=O)ccc2OC)c1 (configuration not stated): 3.42
- COc1cccc(-c2cc(C(=O)Nc3cc4ccc(OCCCN(C)C)c(C)c4oc3=O)ccc2OC)c1: 12.8
- COc1cccc(-c2cc(C(=O)Nc3cc4ccc(OCCN(C)C)c(C)c4oc3=O)ccc2OC)c1: 4.17
- COc1cc2cc(NC(=O)c3ccc(OC(C)=O)c(CC=C(C)C)c3)c(=O)oc2c(C)c1OCCCN(C)C: 1.46
- COc1cccc(-c2cc(C(=O)Nc3cc4cc(OC)c(OP(=O)(OC)OC)c(C)c4oc3=O)ccc2OC)c1: 31.3
- COc1cccc(-c2cc(C(=O)Nc3cc4cc(OC)c(O[C@@H]5OC[C@@H](O)[C@H]5O)c(C)c4oc3=O)ccc2OC)c1: 9.56
- CC(=O)Oc1ccc(C(=O)Nc2cc3ccc(OCCCN(C)C)c(C)c3oc2=O)cc1CC=C(C)C: 1.42
- COc1cccc(-c2cc(C(=O)Nc3cc4ccc(OCC(O)CO)c(OC)c4oc3=O)ccc2OC)c1 (configuration not stated): 1.66
- COc1cccc(-c2cc(C(=O)Nc3cc4ccc(O[C@@H]5O[C@H](CO)C[C@@H](O)[C@H]5O)c(C)c4oc3=O)ccc2OC)c1: 4.58
- COc1cccc(-c2cc(C(=O)Nc3cc4ccc(OC5CN(C)C[C@@H](O)[C@H]5O)c(OC)c4oc3=O)ccc2OC)c1 (some centres not stated): 3.52
- COc1cccc(-c2cc(C(=O)Nc3cc4ccc(OC(=O)N(C)C)c(OC)c4oc3=O)ccc2OC)c1: 11.6
- COc1cc2cc(NC(=O)c3cc4ccccc4[nH]3)c(=O)oc2c(C)c1OC1CCN(C)CC1: 0.87
- COc1c(OCCCN(C)C)ccc2cc(NC(=O)c3ccc(O)c(CC=C(C)C)c3)c(=O)oc12: 9.24
- COc1cccc(-c2cc(C(=O)Nc3cc4cc(OC)c(OC5CN(C)C[C@@H](O)[C@H]5O)c(C)c4oc3=O)ccc2OC)c1 (some centres not stated): 4.17
- COc1cccc(-c2cc(C(=O)Nc3cc4ccc(OCCCN(C)C)c(OC)c4oc3=O)ccc2OC)c1: 4.08
- COc1cccc(-c2cc(C(=O)Nc3cc4ccc(OC5OC(C)(C)[C@H](OC)[C@@H](O)[C@H]5O)c(OC)c4oc3=O)ccc2OC)c1 (some centres not stated): 1.44
- COc1cc2cc(NC(=O)c3ccc(O)c(CC=C(C)C)c3)c(=O)oc2c(C)c1OCCCN(C)C: 1.38
- COc1cccc(-c2cc(C(=O)Nc3cc4ccc(OC5CNC[C@@H](O)[C@H]5O)c(OC)c4oc3=O)ccc2OC)c1 (some centres not stated): 14.4
- COc1cccc(-c2cc(C(=O)Nc3cc4cc(OC)c(OCCCN(C)C)c(C)c4oc3=O)ccc2OC)c1: 5.4
- COc1c(OC2CCN(C)CC2)ccc2cc(NC(=O)c3ccc(O)c(CC=C(C)C)c3)c(=O)oc12: 3.53
- Cc1c(OC2CCN(C)CC2)ccc2cc(NC(=O)c3cc4ccccc4[nH]3)c(=O)oc12: 11.4
- COc1cccc(-c2cc(C(=O)Nc3cc4cc(OC)c(O[C@@H]5O[C@H](CO)C[C@@H](O)[C@H]5O)c(C)c4oc3=O)ccc2OC)c1: 5.9
- COc1cccc(-c2cc(C(=O)Nc3cc4cc(OC)c(OC5CCCNC5)c(C)c4oc3=O)ccc2OC)c1 (configuration not stated): 2.59
- COc1cccc(-c2cc(C(=O)Nc3cc4ccc(O[C@@H]5C[C@H](O)CO5)c(C)c4oc3=O)ccc2OC)c1: 26.8
- COc1cccc(-c2cc(C(=O)Nc3cc4cc(OC)c(OC5CCCN(C)C5)c(C)c4oc3=O)ccc2OC)c1 (configuration not stated): 6.86
